# system: hDGAT1 (Homo sapiens, UniProt O75907)
# testProtocol: In-vitro DGAT1 assay (14C oleoyl CoA, hDGAT1 microsomes from Sf9 cells)
# studyConditions: read-out: % Inhibition of hDGAT1
measure: inhibition at 1 µM

Below, each entry is followed by its recorded inhibition at 1 µM result.
| smilesNotation | result |
| --- | --- |
| CC(C)[C@@H](C(=O)O)N1Cc2ccc(-c3ccc(NC(=O)c4ccccc4C(F)(F)F)cc3)cc2C1=O | 10 to 50% |
| CC(C)[C@@H](C(=O)O)N1Cc2cc(-c3ccc(NC(=O)Nc4ccc(F)cc4F)cc3)ccc2C1=O | > 50% |
| COc1ccccc1C(=O)Nc1ccc(-c2ccc3c(c2)C(=O)N([C@H](C(=O)O)C(C)C)C3)cc1 | > 50% |

// next item, inhibition at 1 µM requested
Incoming: Report the value of inhibition at 1 µM obtained on hDGAT1 (Homo sapiens, UniProt O75907) for `CC(C)[C@@H](C(=O)O)N1Cc2ccc(-c3ccc(NC(=O)c4ccc(OC(F)(F)F)cc4)cc3Cl)cc2C1=O` .
Outgoing: > 50%

###

# system: hDGAT1 (Homo sapiens)
# testProtocol: In-vitro DGAT1 assay (14C oleoyl CoA, hDGAT1 microsomes from Sf9 cells)
# studyConditions: read-out: % Inhibition of hDGAT1
measure: inhibition at 1 µM

| compound | result |
| --- | --- |
| CC(C)[C@@H](C(=O)O)N1Cc2ccc(-c3ccc(NC(=O)c4cccc(Oc5ccccc5)c4)cc3)cc2C1=O | > 50% |
| O=C(Nc1ccc(-c2ccc3c(c2)C(=O)N(C2CCCC(C(=O)O)C2)C3)cc1)c1cccc(Cl)c1 (centres unmarked) | > 50% |

Incoming: Give inhibition at 1 µM for `C[C@@H](C(=O)O)N1Cc2cc(-c3ccc(NC(=O)Nc4cccc(C(F)(F)F)c4)cc3)ccc2C1=O`
Outgoing: > 50%

Incoming: Give inhibition at 1 µM for `CC(C)[C@@H](C(=O)O)N1Cc2ccc(-c3ccc(NC(=O)Nc4ccc(F)c(F)c4)cc3C(F)(F)F)cc2C1=O`
Outgoing: 10 to 50%

Incoming: Give inhibition at 1 µM for `CC(C)[C@@H](C(=O)O)N1Cc2ccc(-c3ccc(NC(=O)Nc4ccc(F)cc4)cc3)cc2C1=O`
Outgoing: 10 to 50%

###

# system: UniProt:O75907
# testProtocol: In-vitro DGAT1 assay (14C oleoyl CoA, hDGAT1 microsomes from Sf9 cells)
# studyConditions: read-out: % Inhibition of hDGAT1
measure: inhibition at 1 µM

Below, each entry is followed by its recorded inhibition at 1 µM result.
| smilesNotation | measure | result |
| --- | --- | --- |
| CCCCCc1ccc(C(=O)Nc2ccc(-c3ccc4c(c3)C(=O)N([C@H](C(=O)O)C(C)C)C4)c(Cl)c2)cc1 | inhibition at 1 µM | > 50% |
| CC(C)[C@@H](C(=O)O)N1Cc2ccc(-c3ccc(NC(=O)c4ccc5ccccc5c4)cn3)cc2C1=O | inhibition at 1 µM | > 50% |

// next item, inhibition at 1 µM requested
Incoming: Give inhibition at 1 µM for `CC(C)[C@@H](C(=O)O)N1Cc2ccc(-c3ccc(NC(=O)c4cccc5ccccc45)cc3)cc2C1=O`
Outgoing: 10 to 50%

###

Recorded inhibition at 1 µM for the following compounds
# system: UniProt O75907
# Sequence (O75907 1-488): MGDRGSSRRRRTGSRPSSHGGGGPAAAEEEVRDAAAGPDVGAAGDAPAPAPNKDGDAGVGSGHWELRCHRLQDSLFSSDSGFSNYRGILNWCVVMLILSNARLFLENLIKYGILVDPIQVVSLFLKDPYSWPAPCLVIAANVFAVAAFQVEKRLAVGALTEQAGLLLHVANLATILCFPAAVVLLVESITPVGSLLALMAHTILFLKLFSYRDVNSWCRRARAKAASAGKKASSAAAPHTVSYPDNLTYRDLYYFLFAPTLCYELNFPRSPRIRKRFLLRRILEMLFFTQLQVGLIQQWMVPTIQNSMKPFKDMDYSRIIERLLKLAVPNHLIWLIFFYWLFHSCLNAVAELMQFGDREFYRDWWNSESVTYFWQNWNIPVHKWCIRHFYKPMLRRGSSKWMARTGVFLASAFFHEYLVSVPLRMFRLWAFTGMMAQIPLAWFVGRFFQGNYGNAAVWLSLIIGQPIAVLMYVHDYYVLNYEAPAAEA
# testProtocol: In-vitro DGAT1 assay (14C oleoyl CoA, hDGAT1 microsomes from Sf9 cells)
# studyConditions: read-out: % Inhibition of hDGAT1

| compound | inhibition at 1 µM |
| --- | --- |
| CC(C)[C@@H](C(=O)O)N1Cc2ccc(-c3ccc(NC(=O)Nc4ccc(Cl)cc4Oc4ccccc4)cc3)cc2C1=O [Example 44] | > 50% |
| CC(C)[C@@H](C(=O)O)N1Cc2ccc(-c3ccc(NC(=O)Nc4ccccc4Cl)c(F)c3)cc2C1=O [Example 442] | > 50% |

Incoming: Give inhibition at 1 µM for CCOc1cc(OCC)cc(C(=O)Nc2ccc(-c3ccc4c(c3)C(=O)N([C@H](C(=O)O)C(C)C)C4)cc2)c1 [Example 146]
Outgoing: > 50%

Incoming: Give inhibition at 1 µM for CC(C)[C@@H](C(=O)O)N1Cc2ccc(-c3ccc(NC(=O)c4ccc(F)c(F)c4)cc3)cc2C1=O [Example 140]
Outgoing: > 50%

Incoming: Give inhibition at 1 µM for CC(C)[C@@H](C(=O)O)N1Cc2cc(-c3ccc(NC(=O)c4ccc(F)cc4)cc3)ccc2C1=O [Example 307]
Outgoing: 10 to 50%

Incoming: Give inhibition at 1 µM for COc1ccc(OC)c(C(=O)Nc2ccc(-c3ccc4c(c3)C(=O)N([C@H](C(=O)O)C(C)C)C4)cc2)c1 [Example 180]
Outgoing: > 50%

Incoming: Give inhibition at 1 µM for CC(C)[C@@H](C(=O)O)N1Cc2cc(-c3ccc(NS(=O)(=O)c4ccc(C(F)(F)F)cc4)cc3)ccc2C1=O [Example 299]
Outgoing: 10 to 50%

Incoming: Give inhibition at 1 µM for CC(C)[C@@H](C(=O)O)N1Cc2ccc(-c3ccc(NC(=O)c4ccc(OC(F)(F)F)cc4)cc3)cc2C1=O [Example 158]
Outgoing: > 50%

Incoming: Give inhibition at 1 µM for O=C(Nc1ccc(-c2ccc3c(c2)C(=O)N([C@@H]2CCC[C@@H]2C(=O)O)C3)cc1)c1ccc(Cl)cc1 [Example 596]
Outgoing: > 50%

Incoming: Give inhibition at 1 µM for COc1ccccc1NC(=S)Nc1ccc(-c2ccc3c(c2)CN([C@H](C(=O)O)C(C)C)C3=O)cc1 [Example 281]
Outgoing: > 50%

###

Recorded inhibition at 1 µM for the following compounds
# system: hDGAT1 (Homo sapiens, UniProt O75907)
# testProtocol: In-vitro DGAT1 assay (14C oleoyl CoA, hDGAT1 microsomes from Sf9 cells)
# studyConditions: read-out: % Inhibition of hDGAT1

| smilesNotation | result |
| --- | --- |
| CCCCOc1ccc(C(=O)Nc2ccc(-c3ccc4c(c3)C(=O)N([C@H](C(=O)O)C(C)C)C4)c(OC)c2)cc1 | 10 to 50% |
| CC(C)[C@H](C(=O)O)N1Cc2ccc(-c3ccc(NC(=O)Nc4cccc(C(F)(F)F)c4)cc3)cc2C1=O | > 50% |
| CC(C)(C(=O)O)N1Cc2ccc(-c3ccc(NC(=O)c4ccc(Cl)cc4)cc3)cc2C1=O | > 50% |
| COc1ccc(S(=O)(=O)Nc2ccc(-c3ccc4c(c3)CN([C@H](C(=O)O)C(C)C)C4=O)cc2)cc1OC | 10 to 50% |
| CC(C)[C@@H](C(=O)O)N1Cc2cc(-c3ccc(NS(=O)(=O)C4CCCCC4)cc3)ccc2C1=O | 10 to 50% |
| CCCCCCCCCc1ccc(C(=O)Nc2ccc(-c3ccc4c(c3)C(=O)N([C@H](C(=O)O)C(C)C)C4)cc2)cc1 | > 50% |

// next item, inhibition at 1 µM requested
Incoming: Give inhibition at 1 µM for `O=C(O)CN1Cc2ccc(-c3ccc(NC(=O)Nc4cccc(C(F)(F)F)c4)cc3)cc2C1=O`
Outgoing: 10 to 50%

###

# system: UniProt O75907
# Sequence (O75907 1-488): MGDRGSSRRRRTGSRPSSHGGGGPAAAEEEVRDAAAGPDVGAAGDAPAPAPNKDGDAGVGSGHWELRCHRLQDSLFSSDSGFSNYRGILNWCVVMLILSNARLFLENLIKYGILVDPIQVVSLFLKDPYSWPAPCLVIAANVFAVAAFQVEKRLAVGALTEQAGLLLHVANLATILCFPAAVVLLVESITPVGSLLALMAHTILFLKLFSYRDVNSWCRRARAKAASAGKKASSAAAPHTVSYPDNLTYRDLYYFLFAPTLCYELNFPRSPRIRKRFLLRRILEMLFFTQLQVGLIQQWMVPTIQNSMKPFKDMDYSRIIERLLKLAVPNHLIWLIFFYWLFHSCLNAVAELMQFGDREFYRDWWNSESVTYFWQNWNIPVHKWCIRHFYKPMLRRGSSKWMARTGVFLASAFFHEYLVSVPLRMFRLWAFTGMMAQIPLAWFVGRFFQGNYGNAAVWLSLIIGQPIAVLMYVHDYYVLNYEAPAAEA
# testProtocol: In-vitro DGAT1 assay (14C oleoyl CoA, hDGAT1 microsomes from Sf9 cells)
# studyConditions: read-out: % Inhibition of hDGAT1
Recorded inhibition at 1 µM for the following molecules

Below, each entry is followed by its recorded inhibition at 1 µM result.
| smilesNotation | system | inhibition at 1 µM |
| --- | --- | --- |
| CCCCCc1ccc(C(=O)Nc2ccc(-c3ccc4c(c3)C(=O)N([C@H](C(=O)O)C(C)C)C4)cc2)cc1 | UniProt O75907 | > 50% |
| CC(C)[C@@H](C(=O)O)N1Cc2ccc(-c3ccc(NC(=O)Nc4cccc(C#N)c4)cc3)cc2C1=O | UniProt O75907 | > 50% |
| CC(C)[C@@H](C(=O)O)N1Cc2ccc(-c3ccc(NC(=O)c4ccc(F)cc4C(F)(F)F)cc3)cc2C1=O | UniProt O75907 | 10 to 50% |

Incoming: Give inhibition at 1 µM for `O=C(Nc1ccc(-c2ccc3c(c2)CN(C2(C(=O)O)CCCC2)C3=O)cc1)Nc1cccc(C(F)(F)F)c1`
Outgoing: 10 to 50%
